Molecular target: NMDA receptor (GRIN1 / GRIN2B, NR2B) expressed in HEK293 cells (Homo sapiens, UniProt Q05586+Q13224)
Construct: host or cells: HEK293
Sequence (Q13224 27-1484, other chains not shown): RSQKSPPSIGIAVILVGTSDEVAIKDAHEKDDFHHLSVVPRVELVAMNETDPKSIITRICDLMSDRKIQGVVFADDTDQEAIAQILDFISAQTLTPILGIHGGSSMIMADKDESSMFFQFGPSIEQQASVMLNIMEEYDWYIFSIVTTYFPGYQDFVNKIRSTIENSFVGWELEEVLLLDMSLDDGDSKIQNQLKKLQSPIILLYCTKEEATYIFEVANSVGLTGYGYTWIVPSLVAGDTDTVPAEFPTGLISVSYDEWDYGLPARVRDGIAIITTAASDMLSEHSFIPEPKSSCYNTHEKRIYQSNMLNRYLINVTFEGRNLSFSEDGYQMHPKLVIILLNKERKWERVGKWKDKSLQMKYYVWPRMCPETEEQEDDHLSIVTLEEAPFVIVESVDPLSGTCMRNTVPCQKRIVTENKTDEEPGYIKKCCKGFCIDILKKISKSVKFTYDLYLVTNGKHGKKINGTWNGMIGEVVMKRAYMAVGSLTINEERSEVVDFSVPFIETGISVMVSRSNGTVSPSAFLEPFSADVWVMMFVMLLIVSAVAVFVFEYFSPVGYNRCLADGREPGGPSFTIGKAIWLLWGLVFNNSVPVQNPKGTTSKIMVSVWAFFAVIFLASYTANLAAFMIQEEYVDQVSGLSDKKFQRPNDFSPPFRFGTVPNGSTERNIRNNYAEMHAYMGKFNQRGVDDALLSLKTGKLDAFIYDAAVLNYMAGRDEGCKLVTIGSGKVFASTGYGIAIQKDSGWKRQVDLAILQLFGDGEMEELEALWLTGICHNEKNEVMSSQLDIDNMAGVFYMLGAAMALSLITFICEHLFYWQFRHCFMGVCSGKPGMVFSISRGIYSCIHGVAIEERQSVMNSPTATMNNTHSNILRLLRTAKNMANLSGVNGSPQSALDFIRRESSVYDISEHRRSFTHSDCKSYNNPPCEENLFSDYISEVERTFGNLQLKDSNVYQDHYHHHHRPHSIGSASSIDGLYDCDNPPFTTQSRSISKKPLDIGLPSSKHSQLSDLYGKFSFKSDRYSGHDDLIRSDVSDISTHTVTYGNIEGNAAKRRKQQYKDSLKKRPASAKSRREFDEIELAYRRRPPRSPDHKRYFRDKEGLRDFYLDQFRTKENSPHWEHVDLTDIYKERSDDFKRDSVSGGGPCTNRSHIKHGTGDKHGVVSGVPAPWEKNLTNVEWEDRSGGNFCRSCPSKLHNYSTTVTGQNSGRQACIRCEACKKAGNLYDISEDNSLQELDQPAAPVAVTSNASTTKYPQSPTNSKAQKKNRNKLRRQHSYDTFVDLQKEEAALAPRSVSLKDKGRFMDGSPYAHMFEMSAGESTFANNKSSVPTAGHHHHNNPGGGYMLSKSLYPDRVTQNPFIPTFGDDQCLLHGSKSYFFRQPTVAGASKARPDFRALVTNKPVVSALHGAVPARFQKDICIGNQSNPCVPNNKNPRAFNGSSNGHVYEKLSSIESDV
Test: Reversal of Ro 25-6981-mediated suppression of Ca2+ response (fluo-8 fluorescence, FDSS) in HEK293 cells expressing GRIN1/GRIN2B
Assay type: cell-based
Settings: % reversal of Ro 25-6981 suppression of co-agonist (glutamate/glycine) Ca2+ response, test concentration not given
readout.kind: Avg Response Recovered (%)

1) CC1(F)CN(C(=O)Cn2cnc3scc(-c4ccc(F)c(Cl)c4)c3c2=O)C1 :: 165
2) O=C(Cn1c(C(F)(F)F)nc2scc(-c3ccc(Cl)cc3)c2c1=O)N1CC(F)(F)C1 :: 0
3) O=C(Cn1cnc2scc(-c3ccc(F)c(Cl)c3)c2c1=O)N1CC(F)(F)C1 :: 49
4) COC1CN(C(=O)Cn2cnc3sc(-c4ccc(Cl)cc4)cc3c2=O)C1 :: 24
5) O=C(Cn1cnc2scc(-c3ccc(Cl)cc3)c2c1=O)N1CCC1 :: 2
6) O=C(Cn1cnc2scc(-c3ccc(F)cc3)c2c1=O)N1CC(F)(F)C1 :: 6
7) O=C(Cn1cnc2scc(-c3ccc(Cl)c(Cl)c3)c2c1=O)N1CC(F)(CF)C1 :: 121
8) O=C(Cn1cnc2scc(-c3ccc(Cl)cc3)c2c1=O)N1CC2(COC2)C1 :: 0
9) O=C(Cn1cnc2scc(-c3ccc(Cl)cc3)c2c1=O)N1CC(F)(F)C1 :: 7
10) O=C(Cn1cnc2scc(-c3ccc(C(F)(F)F)cc3)c2c1=O)N1CC(F)(F)C1 :: 11
11) COC1CN(C(=O)Cn2cnc3scc(-c4ccc(Cl)cc4)c3c2=O)C1 :: 1
12) CC1(F)CN(C(=O)Cn2cnc3scc(-c4ccc(Cl)c(Cl)c4)c3c2=O)C1 :: 152
13) CCC1(F)CN(C(=O)Cn2cnc3scc(-c4ccc(Cl)c(Cl)c4)c3c2=O)C1 :: 103

====

The reader will find reported Avg Response Recovered (%) values listed item by item below.
Molecular target: NMDA receptor (GRIN1 / GRIN2B, NR2B) expressed in HEK293 cells (Homo sapiens, UniProt Q05586+Q13224)
Construct: host or cells: HEK293
Assay: Reversal of Ro 25-6981-mediated suppression of Ca2+ response (fluo-8 fluorescence, FDSS) in HEK293 cells expressing GRIN1/GRIN2B
Type: cell-based
Settings: % reversal of Ro 25-6981 suppression of co-agonist (glutamate/glycine) Ca2+ response, test concentration not given
readout.kind: Avg Response Recovered (%)

1) O=C(Cn1cnc2scc(-c3ccc(Cl)c(C(F)(F)F)c3)c2c1=O)N1CC(F)(F)C1 :: 62
2) Cc1sc2ncn(CC(=O)N3CC(F)(F)C3)c(=O)c2c1-c1ccc(Cl)cc1 :: 11
3) Cc1nc2scc(-c3ccc(Cl)cc3)c2c(=O)n1CC(=O)N1CC(F)(F)C1 :: 5
4) CCC1(F)CN(C(=O)Cn2cnc3scc(-c4ccc(F)c(Cl)c4)c3c2=O)C1 :: 149
5) O=C(CCn1cnc2scc(-c3ccc(Cl)c(C(F)(F)F)c3)c2c1=O)N1CC(F)(F)C1 :: −1
6) O=C(Cn1cnc2sc(-c3ccc(Cl)cc3)cc2c1=O)N1CCC1 :: 23
7) O=C(Cn1cnc2scc(-c3ccc(F)c(Cl)c3)c2c1=O)N1CC(F)(CF)C1 :: 141
8) Cc1ccc(-c2csc3ncn(CC(=O)N4CC(F)(F)C4)c(=O)c23)cc1 :: 5

Every entry's value here was drawn from patent US11648253B2.
